# protein stability index listing for each entry below
- Test system: Saccharomyces cerevisiae;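 also: PSI is a weighted mean of sequencing reads over stability bins, variants kept only with over 10 reads, mCherry proximal and sfGFP distal, peptide attached via GGGS linker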
- PROCEDURE TEXT: protein stability index of tFT-peptide fusion (C-terminal peptide) (PSI (0-1 scale)); higher = more stable (slower turnover)
- CONDITIONS: genetic background: wild type; temperature: 30 C
API note: the answer field is a bare number with no unit suffix.

Take a look at these entries with their results.
ENTRY SEQUENCE: WVSRDFLVEAVW
REPORTED ENDPOINT: protein stability index
OBSERVED: 0.557

ENTRY SEQUENCE: GGTRSDGYTQSR
REPORTED ENDPOINT: protein stability index
OBSERVED: 0.707

ENTRY SEQUENCE: GGWWGRAGENTR
REPORTED ENDPOINT: protein stability index
OBSERVED: 0.729

ENTRY SEQUENCE: LFTSLYWAFRSR
REPORTED ENDPOINT: protein stability index
OBSERVED: 0.679

ENTRY SEQUENCE: PLFYSLCFFCGL
REPORTED ENDPOINT: protein stability index
OBSERVED: 0.667

Req: Could you tell me which protein stability index is on file for `LCFVFVLGFFAF` ?
Resp: 0.421

Req: Same read-out for `WVCLGWGVPRSG` ?
Resp: 0.835

Req: Repeat with `WKRDSCFFIEAG`
Resp: 0.638

Req: And for `VQVLLMFTWERE` ?
Resp: 0.511

Req: One more sequence: `PPRPPSPAPPPP`
Resp: 0.687

Req: Same question for `LSVSRLGFLLRG` please.
Resp: 0.684

Req: Now the same for `GEGLGIGGYVRG`
Resp: 0.672

Req: Same lookup for `RARSFINSFSQS` , please.
Resp: 0.671

Req: Entry to check: `GESPSRVRSSAG`
Resp: 0.694

Req: And the next one, `EQWSAHSMLSGR` ?
Resp: 0.705

Req: Can you check `SLLLPPRPPCPP` next?
Resp: 0.737

The measured values listed here are drawn from the supplement of paper PMC10724198.
